Molecular target: immunoproteasome LMP7/B5i subunit (Homo sapiens, UniProt P28062)
Assay: Caliper-based proteasome enzymatic activity assay, LMP7
Type: biochemical
Conditions: human recombinant immunoproteasome 0.3 nM, FAM-labeled peptide substrate 1 μM, rt 3 h; read-out: LMP7 subunit IC50
Observed property: IC50 (nM)
Please reply with the bare figure in nM and do not write the unit itself.

Below, 3 compounds whose answers are already recorded.
>  <Compound>
Cc1ccc(C[C@H](NC(=O)OC[C@H]2CCN(C(=O)C(C#N)=CC(C)(C)C)C2)B(O)O)cc1 [Example 46]

>  <IC50 / nM>
4

$$$$
>  <Compound>
CC(C)C=C(C#N)C(=O)N1CCC[C@@H]1COC[C@H](NCC(F)(F)F)C(=O)N[C@@H](CC(C)C)B(O)O [Example 28]

>  <IC50 / nM>
46

$$$$
>  <Compound>
CC(C)(C=C(C#N)C(=O)N1CCC[C@@H](NC(=O)N[C@@H](Cc2ccccc2)B(O)O)C1)N1CCC(F)(F)C1 [Example 101]

>  <IC50 / nM>
145

$$$$

Now let's try a different one.
query: Given the entry CC(C)(C=C(C#N)C(=O)N1CCCC[C@@H](OC(=O)N[C@@H](Cc2ccccc2)B(O)O)C1)N1CCOCC1 (single isomer, unassigned) [Example 103] , what IC50 was observed with immunoproteasome LMP7/B5i subunit (Homo sapiens, UniProt P28062)?
result: 2.2

---

Molecular target: immunoproteasome LPM2/β1i subunit (Homo sapiens, UniProt P28065)
Assay: Caliper-based proteasome enzymatic activity assay, LMP2
Settings: human recombinant immunoproteasome 0.3 nM, FAM-labeled peptide substrate 1 μM, rt 2 h
Parameter: IC50. Scope: all listed entries.

>  <Molecule>
C=CC(=O)N1CCC[C@H]1CNC(=O)N[C@@H](Cc1ccccc1)B(O)O [Example 37]

>  <IC50>
> 5 µM

$$$$
>  <Molecule>
CC(C)C=C(C#N)C(=O)N1CCC[C@@H]1CNC(=O)N[C@@H](Cc1ccccc1)B(O)O [Example 32]

>  <IC50>
> 5 µM

$$$$
>  <Molecule>
CC(C)C=C(C#N)C(=O)NCCCC[C@H](NC(=O)c1cc(Cl)ccc1Cl)C(=O)N[C@@H](Cc1ccccc1)B(O)O [Example 8]

>  <IC50>
0.079 µM

$$$$
>  <Molecule>
COC(=O)N1CCN(C(C)(C)C=C(C#N)C(=O)N2CCC[C@H](OC(=O)N[C@@H](Cc3ccccc3)B(O)O)C2)CC1 [Example 83]

>  <IC50>
> 5 µM

$$$$
>  <Molecule>
C=CC(=O)N1CCC[C@@H]1CNC(=O)N[C@@H](Cc1coc2ccccc12)B(O)O [Example 41]

>  <IC50>
> 5 µM

$$$$

query: Given the entry CC(C)C=C(C#N)C(=O)NCCCC[C@H](NCC(F)(F)F)C(=O)N[C@@H](Cc1ccccc1)B(O)O [Example 13] , what IC50 was observed with immunoproteasome LPM2/β1i subunit (Homo sapiens, UniProt P28065)?
result: > 5 µM

query: Given the entry CC(C)C=C(C#N)C(=O)NCCCC[C@H](NC(=O)c1cnccn1)C(=O)N[C@@H](CC(C)C)B(O)O [Example 2] , what IC50 was observed with immunoproteasome LPM2/β1i subunit (Homo sapiens, UniProt P28065)?
result: 0.0463 µM

query: Given the entry C=CC(=O)N1CC[C@H](OC(=O)N[C@@H](Cc2ccccc2)B(O)O)C1 [Example 88] , what IC50 was observed with immunoproteasome LPM2/β1i subunit (Homo sapiens, UniProt P28065)?
result: 1.86 µM

query: Given the entry CC(C)C=C(C#N)C(=O)N1CCC[C@H]1CNC(=O)N[C@@H](Cc1ccccc1)B(O)O [Example 34] , what IC50 was observed with immunoproteasome LPM2/β1i subunit (Homo sapiens, UniProt P28065)?
result: > 5 µM

query: Given the entry Cc1ccc(C[C@H](NC(=O)NC[C@@H]2CCCN2C(=O)C(C#N)=CC(C)(C)C)B(O)O)cc1 [Example 42] , what IC50 was observed with immunoproteasome LPM2/β1i subunit (Homo sapiens, UniProt P28065)?
result: > 5 µM
